# Tested on: JAK3(JH1domain-catalytic)
# condition_notes: concentration: 1 μM, replicates: in singlicate; n = 1;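 note: KINOMEscan kinase panel screen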

{"molecular_string": "Cc1csc(-c2nc(Nc3ccncc3)c3ccccc3n2)n1", "quantity_unit": "%", "%Inh": 9}
{"molecular_string": "CC(C)(C)c1ccc(C(=O)Nc2cn3cc(-c4cccnc4)ccc3n2)cc1", "quantity_unit": "%", "%Inh": 2}
{"molecular_string": "Cc1cccc(-c2nc(Nc3ccncc3)c3ccccc3n2)n1", "quantity_unit": "%", "%Inh": 0}
{"molecular_string": "CS(=O)(=O)c1ccc(-c2nc3n(c2-c2ccncc2)CCC3)cc1", "quantity_unit": "%", "%Inh": 0}
{"molecular_string": "COc1cc2ncnc(Nc3ccc4nc(-c5ccccc5)[nH]c4c3)c2cc1OC.Cl", "quantity_unit": "%", "%Inh": 0}
{"molecular_string": "Cc1cc(NCC(c2ccccc2)c2ccccc2)nc(NCc2ccc(C(F)(F)F)cc2)n1", "quantity_unit": "%", "%Inh": 0}
{"molecular_string": "Nc1nc(-c2nccs2)c(-c2ccnc3ccccc23)s1", "quantity_unit": "%", "%Inh": 0}
{"molecular_string": "Cc1cc(N2Cc3ccccc3C2)nc(Nc2ccc(S(=O)(=O)N3CCOCC3)cc2)n1.Cl", "quantity_unit": "%", "%Inh": 0}
{"molecular_string": "Cc1ccc(NC(=O)Nc2cc(C(C)(C)C)nn2-c2ccccc2)cc1", "quantity_unit": "%", "%Inh": 0}

---

# Test system: SGK
# condition_notes: concentration: 1 μM, replicates: in singlicate; n = 1

{"compound": "O=C(Nc1n[nH]c2nc(-c3nccs3)c(Br)cc12)C1CC1 [SB-742251]", "%Inh / %": 0}
{"compound": "COc1cc2nccc(Nc3ccc(NC(=O)c4ccc(C)cc4)c(O)c3)c2cc1OC.Cl [GW440132]", "%Inh / %": 0}
{"compound": "Cc1nnc(-c2ccc3occ(-c4ccc(S(C)=O)cc4)c3c2)[nH]1 (stereo not shown)", "%Inh / %": 1}
{"compound": "COC(=O)c1c(-c2ccccc2)c2cc(OC)ccc2c(=O)n1Cc1ccccc1", "%Inh / %": 0}
{"compound": "O=c1cc(N2CCOCC2)nc2n(Cc3cccc(Cl)c3Cl)ccn12 [GSK2286295]", "%Inh / %": 22}
{"compound": "Cc1csc(-c2nc(Nc3ccncc3)c3ccccc3n2)n1 [GW869640]", "%Inh / %": 39}
{"compound": "Cc1ccccc1-n1cnc2c(N)ncnc21 [SKF-97510]", "%Inh / %": 0}
{"compound": "O=C(Nc1n[nH]c2nc(-c3nccs3)c(Br)cc12)C1CCCC1 [SB-742609]", "%Inh / %": 7}
{"compound": "O=S(=O)(c1ccc(-c2ccnc3[nH]ccc23)cc1)N1CCCC1 [GSK846226]", "%Inh / %": 0}
{"compound": "Cc1ccc(NC(=O)Nc2cccc(Cl)c2)cc1-c1ccc(C(=O)Nc2ccncc2)cc1 [GSK1398468]", "%Inh / %": 0}
{"compound": "CC(C)(C)c1ccc(C(=O)Nc2cn3cc(Cl)ccc3n2)cc1", "%Inh / %": 8}
{"compound": "COc1cccc(-c2cc(-c3c[nH]nc3-c3ccccn3)ccn2)c1 [GW680338]", "%Inh / %": 7}
{"compound": "Cn1cncc1-c1ccc2ncnc(Nc3ccc(OCc4ccccc4)cc3)c2c1 [GW320571]", "%Inh / %": 0}
{"compound": "Cl.c1ccc(-c2n[nH]cc2-c2ccnc(-c3ccc(CN4CCOCC4)cc3)c2)nc1 [GW776245]", "%Inh / %": 0}
{"compound": "CCn1c(-c2cccnc2O)nc2cnccc21 [SB-736715]", "%Inh / %": 0}
{"compound": "CC1=C(C(=O)Nc2cc3cn[nH]c3cc2F)C(c2ccc(C(F)(F)F)cc2)CC(=O)N1 (stereo not shown) [GSK429286]", "%Inh / %": 0}
{"compound": "CCn1c(-c2ccccn2)nc2cnccc21 [SB-736398]", "%Inh / %": 3}
{"compound": "Cl.O=C(Nc1cccc(-c2nn3ncccc3c2-c2ccnc(Nc3cccnc3)n2)c1)c1c(F)cccc1F [GSK312879]", "%Inh / %": 0}
{"compound": "Cn1ccc2ncnc(Oc3cccc(C(=O)Nc4ccccc4)c3)c21", "%Inh / %": 0}
{"compound": "O=C(Nc1ccccc1)Nc1cccc(Oc2ccc3nccn3n2)c1", "%Inh / %": 0}
{"compound": "COC(=O)c1c(-c2ccccc2)c2cc(C(=O)O)ccc2c(=O)n1Cc1ccccc1", "%Inh / %": 23}
{"compound": "CC(=O)Nc1nc2cnc(Nc3cc(NC(=O)c4cccc(CCC#N)c4)ccc3C)nc2s1", "%Inh / %": 0}
{"compound": "CN(C)CCN(C)C(=O)c1cc(-c2ccncc2)c(-c2ccc(Cl)c(O)c2)o1.Cl.Cl [SB-710397]", "%Inh / %": 0}
{"compound": "Cn1ccc2ncnc(Oc3ccc(NC(=O)Nc4ccccc4)cc3)c21", "%Inh / %": 1}
{"compound": "COc1cc2ncn(-c3cc(OCC4CCCO4)c(C(N)=O)s3)c2cc1OC (stereo not shown) [GSK204607]", "%Inh / %": 0}
{"compound": "O=C1NC(=O)C(N2CCc3ccccc32)=C1c1ccccc1Cl [SB-373598]", "%Inh / %": 0}
{"compound": "Cc1cccc(-c2cc(Nc3ccncc3)c3ccccc3n2)n1 [GSK223675]", "%Inh / %": 0}
{"compound": "Cl.NC(=O)c1cccc(Nc2nccc(Nc3ccc(Oc4cccc(Cl)c4)c(Cl)c3)n2)c1 [GW659008]", "%Inh / %": 0}
{"compound": "O=C(Nc1n[nH]c2cc(-c3cccc(F)c3F)ccc12)C1CC1 [SB-733894]", "%Inh / %": 32}
{"compound": "COc1ccc2nc(-c3cccc(C)n3)nc(Nc3ccncc3)c2c1 [GSK204919]", "%Inh / %": 0}
{"compound": "Cn1ccc2ncnc(Oc3ccc(Nc4nc5ccccc5[nH]4)cc3)c21", "%Inh / %": 0}
{"compound": "COc1cc(Nc2nccc(N3CCC(NC(=O)Nc4cc(C)ccc4C)C3)n2)cc(OC)c1OC (stereo not shown) [GSK1379762]", "%Inh / %": 0}
{"compound": "CSc1nn2c(=O)cc(N3CCOCC3)nc2n1Cc1cccc(C(F)(F)F)c1C [GSK2363608]", "%Inh / %": 0}
{"compound": "Nc1ncnc2[nH]c(-c3ccccc3)nc12 [AH5015]", "%Inh / %": 21}
{"compound": "Cc1cc(N2Cc3ccccc3C2)nc(Nc2ccc(S(=O)(=O)N3CCOCC3)cc2)n1.Cl [GSK1669917]", "%Inh / %": 0}
{"compound": "CN1C(=O)C(Nc2ccc(Cl)c(C(=O)O)c2)=C(c2ccc(Cl)cc2)C1=O [SB-404290]", "%Inh / %": 13}
{"compound": "Clc1cc(Cl)cc(Nc2ccnc(Nc3cc(Cl)cc(Cl)c3)n2)c1 [GSK175726]", "%Inh / %": 3}
